# SYSTEM NAME: Arylsulfatase (Pseudomonas aeruginosa (strain ATCC 15692 / PAO1 / 1C / PRS 101 / LMG12228))
# ASSAY: Inhibition of Pseudomonas aeruginosa aryl sulfatase after 0.5 hrs by para-nitrocatechol sulfate-based colorimetric assay
REPORTED ENDPOINT: pIC50
Would you please state pIC50, meaning minus log10 of the concentration in mol/L, as a bare number?

q: Dear colleague, please send me the reported pIC50 for NCCOCCOCCNC(=O)C(F)c1ccc(OS(=O)(=O)O)cc1 (stereo unspecified) when you can.
a: 2.30

----------
# SYSTEM NAME: Arylsulfatase (Pseudomonas aeruginosa (strain ATCC 15692 / PAO1 / 1C / PRS 101 / LMG12228), UniProt P51691)
# Sequence (P51691 whole entry): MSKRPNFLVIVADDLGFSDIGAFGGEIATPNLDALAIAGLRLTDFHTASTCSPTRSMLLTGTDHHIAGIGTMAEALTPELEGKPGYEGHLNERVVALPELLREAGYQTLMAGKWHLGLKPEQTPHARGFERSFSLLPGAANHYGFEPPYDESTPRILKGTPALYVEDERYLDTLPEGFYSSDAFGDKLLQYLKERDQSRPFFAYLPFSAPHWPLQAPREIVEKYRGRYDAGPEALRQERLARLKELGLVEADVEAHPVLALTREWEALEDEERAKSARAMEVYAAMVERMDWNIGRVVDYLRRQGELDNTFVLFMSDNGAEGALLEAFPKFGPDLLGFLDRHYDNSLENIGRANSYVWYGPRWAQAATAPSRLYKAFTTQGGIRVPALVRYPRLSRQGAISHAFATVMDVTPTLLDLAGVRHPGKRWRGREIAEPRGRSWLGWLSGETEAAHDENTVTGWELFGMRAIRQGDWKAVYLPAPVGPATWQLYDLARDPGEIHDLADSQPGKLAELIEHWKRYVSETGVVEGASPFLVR
# ASSAY: Inhibition of Pseudomonas aeruginosa aryl sulfatase after 20 mins by spectrophotometry
REPORTED ENDPOINT: Ki (µM)
Numeric answer only, unit µM assumed.

q: Dear colleague, please send me the reported Ki for O=S(=O)(O)Oc1ccc(C(F)F)cc1 when you can.
a: 29

----------
# SYSTEM NAME: Arylsulfatase (Klebsiella pneumoniae, UniProt Q9X759)
# Sequence (Q9X759 whole entry): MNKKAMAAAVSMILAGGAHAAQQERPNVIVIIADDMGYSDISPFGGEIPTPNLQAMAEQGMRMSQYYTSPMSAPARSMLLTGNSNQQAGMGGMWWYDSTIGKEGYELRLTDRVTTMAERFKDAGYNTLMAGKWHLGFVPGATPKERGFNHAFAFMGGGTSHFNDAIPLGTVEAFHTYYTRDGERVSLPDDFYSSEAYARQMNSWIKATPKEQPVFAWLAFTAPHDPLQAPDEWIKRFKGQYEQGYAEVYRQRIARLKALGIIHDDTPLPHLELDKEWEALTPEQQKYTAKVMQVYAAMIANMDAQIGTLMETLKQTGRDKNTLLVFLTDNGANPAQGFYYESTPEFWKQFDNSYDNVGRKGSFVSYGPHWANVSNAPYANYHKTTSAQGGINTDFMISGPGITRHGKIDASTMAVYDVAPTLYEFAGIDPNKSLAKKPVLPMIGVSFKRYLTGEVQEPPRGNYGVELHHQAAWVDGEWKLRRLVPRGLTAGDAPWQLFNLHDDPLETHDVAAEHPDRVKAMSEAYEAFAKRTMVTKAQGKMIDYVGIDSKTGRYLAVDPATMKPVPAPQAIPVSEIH
# ASSAY: Inhibition of Klebsiella pneumoniae aryl sulfatase after 0.5 hrs by para-nitrocatechol sulfate-based colorimetric assay
REPORTED ENDPOINT: IC50 (µM)
Numeric answer only, unit µM assumed.

q: Dear colleague, please send me the reported IC50 for NCCOCCOCCNC(=O)C(F)c1ccc(OS(=O)(=O)O)cc1 (stereo unspecified) when you can.
a: 800

----------
# SYSTEM NAME: Arylsulfatase (Klebsiella pneumoniae)
# ASSAY: Inhibition of Klebsiella pneumoniae aryl sulfatase after 20 mins by spectrophotometry
REPORTED ENDPOINT: IC50

q: State recorded IC50 with Arylsulfatase (Klebsiella pneumoniae), entry O=S(=O)(O)Oc1ccccc1C(F)F , no comment.
a: 10 mM
